Assign abundance fitness to each entry below.
B1: FERM and PDZ domain-containing protein 4, residues 75 to 154; numbered along this chain, Q14CM0 (parent)
chain: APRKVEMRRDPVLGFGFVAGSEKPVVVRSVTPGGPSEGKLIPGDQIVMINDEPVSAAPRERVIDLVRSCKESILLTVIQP

variants of: B1; assay: abundance fitness (aPCA) (normalised: wild type 0, dead -1); higher = more abundant; growth selection in yeast, the domain comes from the species named; conditions: Homo sapiens
Please respond with just the number, no unit label.

# input Identify measured abundance fitness corresponding to D10I
# output -0.364

# input Identify measured abundance fitness corresponding to V77W
# output -0.981

# input Identify measured abundance fitness corresponding to G16N
# output -0.677

# input Identify measured abundance fitness corresponding to V18P
# output -1.03

# input Identify measured abundance fitness corresponding to E71M
# output -0.198

# input Identify measured abundance fitness corresponding to V25I
# output -0.116

# input Identify measured abundance fitness corresponding to V47R
# output -0.192

# input Identify measured abundance fitness corresponding to P80H
# output -0.165

# input Identify measured abundance fitness corresponding to D64N
# output -0.055

# input Identify measured abundance fitness corresponding to R8S
# output -0.024

# input Identify measured abundance fitness corresponding to T31A
# output -0.045

# input Identify measured abundance fitness corresponding to S21L
# output -0.049

# input Identify measured abundance fitness corresponding to D64F
# output -0.354

# input Identify measured abundance fitness corresponding to D10K
# output -0.42

Sourced from the Human Domainome abundance scans (Beltran et al. 2025)
